Origin of the recorded values: ChEMBL document CHEMBL5291721

Biological target: UniProt P25021
Sequence (P25021 whole entry): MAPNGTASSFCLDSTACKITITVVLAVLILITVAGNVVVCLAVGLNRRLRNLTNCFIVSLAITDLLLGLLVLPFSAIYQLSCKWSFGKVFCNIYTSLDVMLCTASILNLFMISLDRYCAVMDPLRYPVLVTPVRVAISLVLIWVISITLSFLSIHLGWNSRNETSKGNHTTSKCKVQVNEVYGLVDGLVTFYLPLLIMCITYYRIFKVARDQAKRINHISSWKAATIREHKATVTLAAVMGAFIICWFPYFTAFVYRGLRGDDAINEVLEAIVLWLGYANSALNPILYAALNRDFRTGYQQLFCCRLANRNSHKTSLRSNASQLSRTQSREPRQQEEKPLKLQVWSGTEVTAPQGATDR
Type: functional, cell-based
Record form. Attribute: AC50. Fill in for each entry.

Let me know recorded AC50 for C[C@H]1C[C@@H]2[C@H]([C@@H](O)C[C@@]3(C)[C@H]2CC[C@]3(O)C(=O)COC(=O)CCC(=O)O)[C@@]2(C)C=CC(=O)C=C12 [METHYLPREDNISOLONE HEMISUCCINATE] , thanks.
> 30 µM

Let me know recorded AC50 for COC(=O)N[C@H](C(=O)N[C@@H](Cc1ccccc1)[C@@H](O)CN(Cc1ccc(-c2ccccn2)cc1)NC(=O)[C@@H](NC(=O)OC)C(C)(C)C)C(C)(C)C , thanks.
> 10 µM

Let me know recorded AC50 for O=C(CCCCCCC(=O)Nc1ccccc1)NO , thanks.
> 30 µM

Let me know recorded AC50 for CN(CCCN1c2ccccc2CCc2ccccc21)CC(=O)c1ccc(Cl)cc1 , thanks.
> 30 µM
